molecular target: human CYP11B2 (Homo sapiens); construct: expressed in transfected cells; test: G-402 cellular enzyme assay, human CYP11B2 (aldosterone release, HTRF); format: cell-based; conditions: G-402 cells, 1 μM Deoxycorticosterone
Sequence (P19099 25-503): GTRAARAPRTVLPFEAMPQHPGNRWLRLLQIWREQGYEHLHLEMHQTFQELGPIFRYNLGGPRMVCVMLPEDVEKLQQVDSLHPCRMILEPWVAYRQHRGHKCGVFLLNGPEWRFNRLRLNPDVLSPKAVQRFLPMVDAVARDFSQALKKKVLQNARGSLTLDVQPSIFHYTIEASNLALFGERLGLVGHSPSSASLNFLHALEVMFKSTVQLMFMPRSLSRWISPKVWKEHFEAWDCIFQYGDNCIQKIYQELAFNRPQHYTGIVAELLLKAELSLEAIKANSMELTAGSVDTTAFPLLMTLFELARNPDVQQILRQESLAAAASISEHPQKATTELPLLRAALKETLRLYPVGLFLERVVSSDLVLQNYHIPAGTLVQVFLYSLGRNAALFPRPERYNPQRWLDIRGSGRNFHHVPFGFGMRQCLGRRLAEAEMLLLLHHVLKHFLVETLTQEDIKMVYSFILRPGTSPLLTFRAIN
assayReadout: EC50 (nM)
Write down the numeric answer in nM and omit the unit.

>>> observedmeasurement("CCC(=O)N[C@H]1CCc2c1cncc2N1C(=O)c2ccc(Cl)cc2[C@@H]1C (single isomer, unassigned) [Example 378]")
212
>>> observedmeasurement("O=C1c2ccc(Cl)cc2CN1c1cncc(Cn2cncn2)c1 [Example 110]")
184
>>> observedmeasurement("O=C1c2ccc(Cl)cc2CCN1c1cncc(COCC2CCCO2)c1 (stereo not shown) [Example 201]")
30.4
>>> observedmeasurement("CCC(=O)NC1CCCc2c1cncc2N1C(=O)c2ccc(Cl)cc2C1(C)C (racemic) [Example 468]")
52.8
>>> observedmeasurement("CCCc1nccn1Cc1cncc(N2CCc3cc(Cl)ccc3C2=O)c1 [Example 161]")
101
>>> observedmeasurement("CCC(=O)N[C@H]1CCCc2c1cncc2N1C(=O)c2ccc(Cl)cc2[C@H]1C (single isomer, unassigned) [Example 360]")
853

Inquiry: I'd like to know its EC50. The compound in question is Cn1ncnc1-c1cncc(N2CCc3cc(Cl)ccc3C2=O)c1 [Example 67]
Reply text: 102

Inquiry: I would be grateful if you could share the reported EC50 for CC(c1cncc(N2CCc3cc(Cl)ccc3C2=O)c1)n1cncn1 (stereo not shown) [Example 273] .
Reply text: 64

Inquiry: Value lookup for EC50; key = CC1(C)CN(c2cccnc2)C(=O)c2ccc(Cl)cc21 [Example 102]
Reply text: 1540

Inquiry: Look up EC50 for this compound: Cc1ncccc1C(=O)NCc1cncc(N2C(=O)c3ccc(Cl)cc3C2(C)C)c1 [Example 439]
Reply text: 119

Inquiry: EC50 for O=C1c2ccc(Cl)cc2CN1c1cncc(N2CCC[C@H]2CO)c1 [Example 136] ?
Reply text: 102

Inquiry: Fill in: EC50 of O=C1c2ccc(Cl)cc2CCN1c1cccnn1 [Example 52] is ___
Reply text: 382

Inquiry: Please give the measured EC50 for this compound: O=C1c2ccc(Cl)cc2CCN1c1cncc(CN2CCC(F)(F)CC2)c1 [Example 168]
Reply text: 3.4

Inquiry: Consider the compound CS(=O)(=O)NC1CCCc2c1cncc2N1Cc2cc(Cl)ccc2C1=O (single isomer, unassigned) [Example 326] and give its measured EC50.
Reply text: 1870

Inquiry: Quick one: EC50 of CC(=O)NC1CCc2c1cncc2N1Cc2cc(Cl)ccc2C1=O (single isomer, unassigned; (+)) [Example 319] ?
Reply text: 109

---

Biological target: human CYP11B1 (Homo sapiens, UniProt P15538)
Sequence (P15538 25-503): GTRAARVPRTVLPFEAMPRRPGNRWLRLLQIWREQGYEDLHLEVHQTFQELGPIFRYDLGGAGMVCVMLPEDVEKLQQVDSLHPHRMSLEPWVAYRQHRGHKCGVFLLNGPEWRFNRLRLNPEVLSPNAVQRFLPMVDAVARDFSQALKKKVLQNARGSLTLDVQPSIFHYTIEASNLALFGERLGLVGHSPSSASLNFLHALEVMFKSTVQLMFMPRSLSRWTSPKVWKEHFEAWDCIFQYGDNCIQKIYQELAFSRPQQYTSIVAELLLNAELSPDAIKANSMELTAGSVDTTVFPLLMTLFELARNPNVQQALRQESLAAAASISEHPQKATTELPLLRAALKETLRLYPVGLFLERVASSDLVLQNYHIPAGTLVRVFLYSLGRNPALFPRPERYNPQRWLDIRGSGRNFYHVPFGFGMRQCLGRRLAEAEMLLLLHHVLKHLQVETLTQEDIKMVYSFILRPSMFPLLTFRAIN
Experiment: G-402 cellular enzyme assay, human CYP11B1 (cortisol release, HTRF)
Conditions: G-402 cells, 1 μM Deoxycortisol
assayReadout: pEC50
Worth noting: pEC50 values are minus log10 of concentrations stated in mol/L.

// known answers, use as guide
>>> observedmeasurement("CC1(C)c2cc(Cl)ccc2C(=O)N1c1cncc(N2CC[C@H](O)C2)c1 [Example 454]")
7.21
>>> observedmeasurement("Cn1ncnc1-c1cncc(N2CCc3cc(Cl)ccc3C2=O)c1 [Example 67]")
5.92
>>> observedmeasurement("CC(O)c1cncc(N2CCc3cc(Cl)ccc3C2=O)c1 (centres unmarked) [Example 13]")
6.06
>>> observedmeasurement("CSc1cncc(N2CCc3cc(Cl)ccc3C2=O)c1 [Example 59]")
6.87
>>> observedmeasurement("O=C1c2ccc(Cl)cc2CCN1c1cncc(CN2CCCC(F)(F)C2)c1 [Example 172]")
6.84
>>> observedmeasurement("CN1CCCC1CCOCc1cncc(N2CCc3cc(Cl)ccc3C2=O)c1 (centres unmarked) [Example 196]")
5.99
>>> observedmeasurement("CC1(C)c2cc(Cl)ccc2C(=O)N1c1cncc(CN2CCNC2=O)c1 [Example 411]")
6.11

Inquiry: Consider the molecule O=C1c2ccc(Cl)cc2CCN1c1cncc(N2CC[C@@H](O)C2)c1 [Example 137] and give its measured pEC50.
Reply text: 6.97
